// values below are IC50; system is ACK1 (Homo sapiens, UniProt Q07912)
Sequence (Q07912 whole entry): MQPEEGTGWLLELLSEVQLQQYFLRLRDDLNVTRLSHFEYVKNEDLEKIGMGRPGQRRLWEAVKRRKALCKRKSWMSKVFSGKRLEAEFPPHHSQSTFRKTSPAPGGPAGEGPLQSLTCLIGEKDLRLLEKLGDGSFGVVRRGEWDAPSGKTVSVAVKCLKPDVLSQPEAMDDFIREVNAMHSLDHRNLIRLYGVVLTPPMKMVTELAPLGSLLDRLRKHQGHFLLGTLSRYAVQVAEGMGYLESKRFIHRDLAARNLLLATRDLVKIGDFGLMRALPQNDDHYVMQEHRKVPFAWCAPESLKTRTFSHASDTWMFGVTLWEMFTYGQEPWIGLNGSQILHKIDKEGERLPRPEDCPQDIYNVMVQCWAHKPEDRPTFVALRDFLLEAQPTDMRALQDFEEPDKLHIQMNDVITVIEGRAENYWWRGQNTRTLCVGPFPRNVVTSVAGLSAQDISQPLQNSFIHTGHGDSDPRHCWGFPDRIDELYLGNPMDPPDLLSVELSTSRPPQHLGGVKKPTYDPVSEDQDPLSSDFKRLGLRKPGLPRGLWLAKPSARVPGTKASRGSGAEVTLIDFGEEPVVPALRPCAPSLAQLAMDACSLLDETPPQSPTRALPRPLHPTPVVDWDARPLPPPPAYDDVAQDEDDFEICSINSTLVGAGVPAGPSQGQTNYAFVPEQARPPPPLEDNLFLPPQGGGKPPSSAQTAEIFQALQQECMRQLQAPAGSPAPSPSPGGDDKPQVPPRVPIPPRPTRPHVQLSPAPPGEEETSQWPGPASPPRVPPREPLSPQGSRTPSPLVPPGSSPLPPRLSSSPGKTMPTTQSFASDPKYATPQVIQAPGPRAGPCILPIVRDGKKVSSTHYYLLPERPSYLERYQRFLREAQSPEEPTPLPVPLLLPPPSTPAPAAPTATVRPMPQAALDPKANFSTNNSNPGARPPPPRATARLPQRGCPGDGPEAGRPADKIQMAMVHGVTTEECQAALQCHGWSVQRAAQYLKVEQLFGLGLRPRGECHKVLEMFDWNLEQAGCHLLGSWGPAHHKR
Your answer should be a plain number; it is taken to be in nM.

Example compounds with recorded IC50:
O=C(NC1CC1)c1cc2n(c1)CCc1c(NC(=O)c3ccccc3Cl)n[nH]c1-2 [Example A5-M1-B30]: 4710
CCC(C)NC(=O)c1cc2n(c1)CCc1c(NC(=O)c3ccccc3Cl)n[nH]c1-2 (stereo not shown) [Example A5-M1-B27]: 2400
O=C(Nc1n[nH]c2c1CCn1cc(C(=O)N3CCC(N4CCCCC4)CC3)cc1-2)c1ccccc1Cl [Example A5-M1-B34]: 360

# ---- query compound ----
Query IC50 for O=C(Nc1n[nH]c2c1CCn1cc(C(=O)N3CCSCC3)cc1-2)c1ccccc1Cl [Example A5-M1-B38] 2160
